# SUBJECT OF TEST: T1, human GIP receptor (human, UniProt P48546 22-466)
# T1 sequence (looked up): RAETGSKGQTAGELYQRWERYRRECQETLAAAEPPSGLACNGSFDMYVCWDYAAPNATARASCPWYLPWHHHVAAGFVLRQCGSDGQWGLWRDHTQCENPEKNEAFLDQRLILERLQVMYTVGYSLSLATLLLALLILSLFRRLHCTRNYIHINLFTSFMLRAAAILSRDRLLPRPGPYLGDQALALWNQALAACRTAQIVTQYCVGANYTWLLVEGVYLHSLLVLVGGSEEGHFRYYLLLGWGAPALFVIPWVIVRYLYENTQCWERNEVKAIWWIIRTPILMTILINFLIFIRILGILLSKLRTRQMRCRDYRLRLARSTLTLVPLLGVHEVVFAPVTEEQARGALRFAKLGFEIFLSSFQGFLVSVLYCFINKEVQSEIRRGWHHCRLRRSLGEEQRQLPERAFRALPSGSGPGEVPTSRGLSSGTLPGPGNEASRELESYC
# RUN DESCRIPTION: cell-based or functional assay
Starred links: 1 amine or outer side, 2 acyl side, 3 side chain; linkers in the order of their positions; H or OH if unused. Non-standard residues stand in square brackets, D forms with d. Groups on a side chain read outwards from the residue. No end group written: not given here. *: point of attachment. C18 diacid = O=C(O)CCCCCCCCCCCCCCCCC(=O)*; γGlu = O=C(O)[C@H](CCC(=O)[*:2])N[*:1]; AEEA = NCCOCCOCC(=O)O; Aib = CC(C)(N)C(=O)O
Define the label as label 1 when EC50 CreLuc hGIPR 0.5% hP is strictly less than 0.2 nM and as label 0 in all remaining cases.

# BINDER, ANSWER LABEL
records = [
    ("YXEGTFTSDYSIXLEKQAQXAFVEWLIKGGPSEPESLRHYYNWLTRQRY (Aib at 2, 13, 20; K28 side chain: C20DA-gGlu-gGlu-gGlu-gGlu-gGlu-gGlu-eLys; C-terminal NH2) [Compound 122]", "label 1"),
    ("YXEGTFTSDLSIXLEKQAQXAFVEWLIKGGPSSGASLRHYYNWLTRQRY (Aib at 2, 13, 20; K28 side chain: C20DA-gGlu-gGlu-gGlu-gGlu-gGlu-gGlu-eLys; C-terminal NH2) [Compound 172]", "label 0"),
]

Task: Please check: EC50 CreLuc hGIPR 0.5% hP for YXEGTFTSDYSIXLEKQAQXAFVEWLIKGGPSSGASLRHYINWLTRQRY (Aib at 2, 13, 20; K28 side chain: C20DA-gGlu-gGlu-gGlu-gGlu-gGlu-gGlu-eLys; C-terminal NH2) [Compound 106] , strictly under 0.2 nM or not?
Result: label 0

Task: Now the same for YXEGTFTSDYSIXLEKQAQXAFVQWLIKGGPEEGASLRHYYNWLTRQRY (Aib at 2, 13, 20; K28 side chain: C18DA-gGlu-gGlu-gGlu-gGlu-gGlu-AHX; C-terminal NH2) [Compound 162]
Result: label 0

Task: Then what about the binder Y[Aib]EGTFTSDLSI[Aib]LEKQAQ[Aib]AFVQWLIKGGPSEGASLRHYYNWLTRQRY-NH2 (not fully specified (residue 28)) [Compound 113] ?
Result: label 0

Task: Next up: YXEGTFTSDYSIXLEKQAQXAFVEWLIKGGPSEGQSIRHYYNWLTRQRY (Aib at 2, 13, 20; K28 side chain: C20DA-gGlu-gGlu-gGlu-gGlu-gGlu-gGlu-eLys; C-terminal NH2) [Compound 134]
Result: label 1

Task: Now the binder Y[Aib]EGTFTSDYSI[Aib]LEKQAQ[Aib]EFVQWLIK([γGlu-γGlu-γGlu-γGlu-γGlu-γGlu-C18 diacid])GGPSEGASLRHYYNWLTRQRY-NH2 [Compound 151]
Result: label 0

Task: Okay, and Y[Aib]EGTFTSDYSI[Aib]LEKQAQ[Aib]AFVQWLIK([AEEA-AEEA-γGlu-γGlu-γGlu-γGlu-C18 diacid])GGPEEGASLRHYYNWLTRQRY-NH2 [Compound 146] ?
Result: label 0

The reported numbers originate from patent US20240247080A1.
